Target: full-length recombinant rat vitamin D receptor (Rattus norvegicus, UniProt P13053)
Construct: Full-length recombinant rat receptor was expressed in E. coli; histidine tag (C)
Sequence (P13053 whole entry): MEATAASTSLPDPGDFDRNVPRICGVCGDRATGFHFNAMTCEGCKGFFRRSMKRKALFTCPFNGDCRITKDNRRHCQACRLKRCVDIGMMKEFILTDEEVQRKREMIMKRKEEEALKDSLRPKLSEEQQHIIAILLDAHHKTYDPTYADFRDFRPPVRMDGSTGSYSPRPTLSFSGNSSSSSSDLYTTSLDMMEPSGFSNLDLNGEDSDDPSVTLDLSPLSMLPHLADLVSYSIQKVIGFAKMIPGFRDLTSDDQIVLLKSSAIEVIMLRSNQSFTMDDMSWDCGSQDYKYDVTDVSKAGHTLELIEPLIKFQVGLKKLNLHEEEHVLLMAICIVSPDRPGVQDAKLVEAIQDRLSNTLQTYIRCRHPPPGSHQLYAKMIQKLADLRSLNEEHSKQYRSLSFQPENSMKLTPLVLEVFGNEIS
Experiment: Vitamin D receptor binding (competition with [3H]-1,25(OH)2D3)
Conditions: full-length recombinant rat vitamin D receptor; read-out: Ki, competition with [3H]-1,25(OH)2D3 for binding to VDR
pKi: −log10 of the molar value.
Recorded Metric: pKi

INSERT INTO measurements (compound, result) VALUES
  ('C[C@H](CCCC(C)(C)O)C1CCC2/C(=C/C=C3/C[C@@H]4CCC=C4[C@H](O)C3)CCC[C@@]21C (stereo partly shown) [DO-REVB]', 8.70);
